experiment: Retention in body organs with time (gas chromatography); assay type: in vivo, rats; details: rat, 0.32 mL/100 g; 21 Days; heart; 0.32 ml. fluorocarbon per 100 gm body weight; read-out: Residual fluorocarbon concentration, heart
PROPERTY: concentration at 504 h (ng/g)
One number for each entry, in ng/g.

// lookup concentration at 504 h for FC1(F)N2C(F)(F)C(F)(F)C(F)(F)C2(F)C(F)(F)C(F)(F)C(F)(F)C1(F)F (stereo not shown) [ABCD, perfluoro-1-azabicyclo(5,3,0)decane]
160000

====

assay: Retention in body organs with time (gas chromatography); assay type: in vivo, rats; details: rat, 0.32 mL/100 g; 21 Days; lung; 0.32 ml. fluorocarbon per 100 gm body weight; read-out: Residual fluorocarbon concentration, lung
PROPERTY: concentration at 504 h (ng/g)
Answers are plain numbers, in ng/g.

// lookup concentration at 504 h for FC1(F)N2C(F)(F)C(F)(F)C(F)(F)C2(F)C(F)(F)C(F)(F)C(F)(F)C1(F)F (stereo not shown)
150000

====

experiment: Retention in body organs with time (gas chromatography); assay type: in vivo, rats; details: rat, 0.32 mL/100 g; 10 Days; kidney; 0.32 ml. fluorocarbon per 100 gm body weight; read-out: Residual fluorocarbon concentration, kidney
PROPERTY: concentration at 240 h (ng/g)
One number for each entry, in ng/g.

// lookup concentration at 240 h for FC1(F)N2C(F)(F)C(F)(F)C(F)(F)C2(F)C(F)(F)C(F)(F)C(F)(F)C1(F)F (stereo not shown)
190000

====

assay: Retention in body organs with time (gas chromatography); type: in vivo, rats; settings: rat, 0.32 mL/100 g; 21 Days; spleen; 0.32 ml. fluorocarbon per 100 gm body weight; read-out: Residual fluorocarbon concentration, spleen
PROPERTY: concentration at 504 h (ng/g)
Numbers only, in ng/g.

// lookup concentration at 504 h for FC1(F)N2C(F)(F)C(F)(F)C(F)(F)C2(F)C(F)(F)C(F)(F)C(F)(F)C1(F)F (stereo not shown)
1.12e+06
